Origin of values: patent US9708368B2

molecular target: S. aureus SPase (Staphylococcus aureus); assay: biochemical
Sequence (P0A070 whole entry): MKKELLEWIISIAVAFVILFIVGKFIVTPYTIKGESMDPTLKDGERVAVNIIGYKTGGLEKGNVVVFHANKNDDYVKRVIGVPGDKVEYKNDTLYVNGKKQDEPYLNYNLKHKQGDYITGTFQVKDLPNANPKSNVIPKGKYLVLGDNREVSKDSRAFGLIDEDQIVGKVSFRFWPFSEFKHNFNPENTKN
Numbered stars: 1 amine (or outer) side, 2 acyl side, 3 side chain; on linkers, the order of the positions; unused ones are H or OH. Square brackets hold non-standard residues; d marks the D form. Peptide text beside a SMILES is read from it. * marks the point of attachment. ξ: configuration not given here. Biphenylcarbonyl(4'-Bu) = CCCCc1ccc(-c2ccc(C(=O)*)cc2)cc1; X1 = C[C@H](N*)B1OC2C[C@@H]3C[C@@H](C3(C)C)[C@]2(C)O1; ξ3Amino2oxobutanoyl = CC(N[*:1])C(=O)C(=O)[*:2]; NMeE = CN[C@@H](CCC(=O)O)C(=O)O; Thr(3ξ) = CC(O)[C@H](N)C(=O)O; boroAla = C[C@H](N*)B(O)O; Dab = NCC[C@H](N)C(=O)O; boroGly = OB(O)CN*; βAla = NCCC(=O)O
Quantity kind: IC50 (nM)
Only the number, expressed in nM, is required.

query: // lookup IC50 for CCCCc1ccc(-c2ccc(C(=O)NCCC(=O)N[C@@H](CCCCN)C(=O)N[C@H](C(=O)N[C@@H](C)C(=O)N[C@@H](CC(N)=O)C(=O)NC(C)C(=O)C(=O)NC)[C@@H](C)O)cc2)cc1 (stereo partly shown) [Compound 252] ({Biphenylcarbonyl(4'-Bu)-βAla}-KTAN[ξ3Amino2oxobutanoyl]-NHMe)
result: 8.7

query: Repeat with CCCCc1ccc(-c2ccc(CN[C@@H](CCN)C(=O)N[C@H](C(=O)N[C@@H](C)C(=O)N[C@@H](CCCCN)C(=O)N[C@@H](C)B3OC4C[C@@H]5C[C@@H](C5(C)C)[C@]4(C)O3)[C@@H](C)O)cc2)cc1 (stereo partly shown)
result: 160

query: Here is the next compound: CCCCc1ccc(-c2ccc(C(=O)NCCC(=O)N[C@@H](CCCCN)C(=O)N[C@H](C(=O)N[C@@H](C)C(=O)N[C@@H](CC(N)=O)C(=O)NCB(O)O)C(C)O)cc2)cc1 (stereo partly shown) [Compound 118] ({Biphenylcarbonyl(4'-Bu)-βAla}-K[Thr(3ξ)]AN-boroGly)
result: 9.4

query: Continue with CCCCc1ccc(-c2ccc(C(=O)N[C@@H](CCCCN)C(=O)N[C@@H](Cc3c[nH]cn3)C(=O)N[C@@H](C)C(=O)N[C@@H](CC(N)=O)C(=O)N[C@@H](C)B(O)O)cc2)cc1 [Compound 136] ({Biphenylcarbonyl(4'-Bu)}-KHAN-boroAla)
result: 39

query: Try this compound next: CCCCc1ccc(-c2ccc(C(=O)NCCCC[C@H](NC(=O)[C@H](CCN)NC(C)=O)C(=O)N[C@@H](C)C(=O)N[C@@H](CCCCN)C(=O)N[C@@H](C)B3OC4C[C@@H]5C[C@@H](C5(C)C)[C@]4(C)O3)cc2)cc1 (stereo partly shown) [Compound 279] (Ac-[Dab]K(Biphenylcarbonyl(4'-Bu))AK-X1)
result: 7400

query: Likewise for CCCCc1ccc(-c2ccc(C(=O)N[C@H](CO)C(=O)N[C@H](C)C(=O)NCC(=O)N(C)[C@@H](CCC(=O)O)C(=O)N[C@@H](C)C(=O)N[C@@H](CC(N)=O)C(=O)NCB(O)O)cc2)cc1 [Compound 119] ({Biphenylcarbonyl(4'-Bu)}-[dS][dA]G[NMeE]AN-boroGly) ?
result: 59

query: Next up: CCCCc1ccc(-c2ccc(C(=O)NCCC(=O)N[C@@H](CCCCN)C(=O)N[C@@H](Cc3ccc(O)cc3)C(=O)N[C@@H](C)C(=O)N[C@@H](CCCCN)C(=O)N[C@@H](C)B(O)O)cc2)cc1 [Compound 215] ({Biphenylcarbonyl(4'-Bu)-βAla}-KYAK-boroAla)
result: 17
